Experiment: in vitro
Format: in vitro ADME
Settings: both sexes, human, plasma
experimental_readout: fraction unbound at 4 h, 10 µM

> print(dat)
                    structure.smiles.string  experimental.result
1  N#C[C@@]1(c2ccc3c(N)ncnn23)O[C@H](CO)[C@@H](O)[C@H]1O                ~0.78

###

Tested on: MDR1
Experiment: in vitro
Conditions: human, Caco-2, pH 7.4
experimental_readout: Papp A→B at 2 h, 5 µM (×10⁻⁶ cm/s)

> print(dat)
                    structure.smiles.string  assay.target  experimental.result
1  N#C[C@@]1(c2ccc3c(N)ncnn23)O[C@H](CO)[C@@H](O)[C@H]1O          MDR1                 0.16
